SYSTEM_UNDER_TEST: Metabotropic glutamate receptor 8 (Rattus norvegicus)
EXPERIMENT: mGlu8-mediated intracellular calcium response modulators – cell-based, HEK293 rmGlu8, Gqi9 chimera, Fluo-4 calcium, counter-screen for GIRK activator project, confirmation (AID 623869)
CONDITION_LABEL: HEK293 rmGlu8/Gqi9 calcium flux, Fluo-4 fluorescence; glutamate at EC20 added after compound
The whole screen tested about 2,100 compounds, of which about 75 (4%) were called active.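 How the source made its calls: active means calcium fluorescence trace judged by eye to show a response, as agonist, enhancer of the glutamate response, or inhibitor; inactive means trace judged by eye to show no response.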 What follows is part of a selection rich in actives, with near analogues and random picks from the rest.
Just give me one of these, please: true (active), false (inactive)

// known answers, use as guide
C=COCCNC(=O)Nc1ccc(Cl)c(Cl)c1 = false
O=C(CC(O)(C(F)(F)F)C(F)(F)F)Nc1ccc(Cl)c(Cl)c1 = true
CCCc1ccc(C(=O)N2CCN(c3ccccc3OCC)CC2)cc1 = false
O=C(COc1ccccc1Cl)NC(=S)N1CCc2ccccc21 = false

Hi, sorry to bother you, what did the test record for O=C(NNC(=O)c1sccc1-n1cccc1)c1ccc(Cl)cc1 ? false

Quick one: Cc1ccc(NC(=O)CSC(N)=O)cc1Cl false

---

SYSTEM_UNDER_TEST: Metabotropic glutamate receptor 8 (Rattus norvegicus) (UniProt P70579)
Sequence (P70579 whole entry, looked up): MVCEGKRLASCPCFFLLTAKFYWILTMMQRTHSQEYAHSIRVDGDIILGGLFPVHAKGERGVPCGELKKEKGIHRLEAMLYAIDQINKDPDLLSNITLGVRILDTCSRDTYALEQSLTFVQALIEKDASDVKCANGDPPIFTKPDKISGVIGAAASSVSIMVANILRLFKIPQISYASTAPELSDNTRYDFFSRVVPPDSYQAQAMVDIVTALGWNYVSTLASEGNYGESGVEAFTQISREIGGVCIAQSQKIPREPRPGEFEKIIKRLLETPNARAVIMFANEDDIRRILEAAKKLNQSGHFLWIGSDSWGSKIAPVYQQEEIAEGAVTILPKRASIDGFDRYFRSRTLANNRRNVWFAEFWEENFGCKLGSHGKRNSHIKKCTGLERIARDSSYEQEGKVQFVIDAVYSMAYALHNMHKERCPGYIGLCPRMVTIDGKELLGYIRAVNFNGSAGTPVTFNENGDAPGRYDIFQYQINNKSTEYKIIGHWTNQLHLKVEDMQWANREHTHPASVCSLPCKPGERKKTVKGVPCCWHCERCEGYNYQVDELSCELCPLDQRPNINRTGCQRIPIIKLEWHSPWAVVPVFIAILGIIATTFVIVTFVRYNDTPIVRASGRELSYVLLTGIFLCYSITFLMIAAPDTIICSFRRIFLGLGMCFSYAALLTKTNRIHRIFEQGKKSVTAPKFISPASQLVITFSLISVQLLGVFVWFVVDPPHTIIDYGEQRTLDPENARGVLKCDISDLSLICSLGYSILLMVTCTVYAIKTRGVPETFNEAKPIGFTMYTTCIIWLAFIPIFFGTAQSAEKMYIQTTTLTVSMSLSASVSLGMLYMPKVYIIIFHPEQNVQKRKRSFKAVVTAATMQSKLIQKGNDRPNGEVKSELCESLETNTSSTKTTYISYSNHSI
EXPERIMENT: mGlu8-mediated intracellular calcium response modulators – cell-based, HEK293 rmGlu8, Gqi9 chimera, Fluo-4 calcium, counter-screen for GIRK activator project, confirmation (AID 623869)
CONDITION_LABEL: HEK293 rmGlu8/Gqi9 calcium flux, Fluo-4 fluorescence; glutamate at EC20 added after compound
Screen size: about 2,100 compounds; about 75 (4%) were called active.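 How the source made its calls: active means calcium fluorescence trace judged by eye to show a response, as agonist, enhancer of the glutamate response, or inhibitor; inactive means trace judged by eye to show no response.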 Only a selection was taken, and actives are over-represented in it overall.
Thanks in advance; please answer with one of these: active, inactive

Examples with answers:
COc1ccc(-c2nnc3sc(C4CCCCC4)nn23)cc1OC = active
COc1ccccc1C1=Nn2c(nnc2C2CCCCC2)SC1 = inactive
CCOc1ccc(-c2nc(-c3ccc(OC)c(OC)c3)no2)cc1OCC = inactive
CC(C)(C)NC(=O)C(c1ccncc1)N(C(=O)c1csnn1)c1ccccc1 (stereo unspecified) = active
COC(=O)C1=NN(C(=O)c2ccc(C)cc2)C(O)(c2ccc(Cl)cc2)C1 (stereo unspecified) = inactive
COc1ccc(C2=Nn3c(nnc3C3CCCCC3)SC2)cc1OC = active
COc1ccc(/C=N\NC(=S)SCN2C(=O)C3CCC(C)(C2=O)C3(C)C)cc1 (stereo unspecified) = inactive
c1cc2c(cc1C1=Nn3c(nnc3C3CCCCC3)SC1)OCO2 = inactive
CC(=O)c1c(C)[nH]c(C(=O)CSc2ncnc3sc(-c4ccccc4)cc23)c1C = inactive
Cc1ccc(OCC(=O)NNC(=O)C(C)Sc2ncnc3sc(C)c(C)c23)cc1 (stereo unspecified) = inactive

For this molecule, state the assay outcome: Cc1ccc(-n2ncc3c(SCc4ccccc4)ncnc32)cc1 inactive

---

SYSTEM_UNDER_TEST: Metabotropic glutamate receptor 8 (Rattus norvegicus) (UniProt P70579)
EXPERIMENT: mGlu8-mediated intracellular calcium response modulators – cell-based, HEK293 rmGlu8, Gqi9 chimera, Fluo-4 calcium, counter-screen for GIRK activator project, confirmation (AID 623869)
CONDITION_LABEL: HEK293 rmGlu8/Gqi9 calcium flux, Fluo-4 fluorescence; glutamate at EC20 added after compound
Out of some 2,100 compounds screened, about 75 (4%) were called active.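 Rule for the calls: active = calcium fluorescence trace judged by eye to show a response, as agonist, enhancer of the glutamate response, or inhibitor; inactive = trace judged by eye to show no response.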 This excerpt belongs to a sample that is enriched for actives.
Answer with one of the outcomes t (active), f (inactive)

CCOC(=O)c1ccc(NC(=S)NC(=O)COc2ccccc2)cc1 = f
COC(=O)c1ccccc1NC(=S)NC(=O)COc1ccc(C)cc1 = f
CC12CCC(C(=O)N(CSC(=S)N/N=C\c3ccccc3)C1=O)C2(C)C (stereo unspecified) = f

Per the records of this test, what outcome belongs to COC(=O)c1sccc1NC(=O)CSc1ccccc1NS(=O)(=O)c1cc(Cl)ccc1Cl ? f

Here is the next compound: O=C(COc1ccccc1)NC(=S)Nc1cccc([N+](=O)[O-])c1 f

Same question, Cc1ccccc1C(=O)NNC(=S)NC(=O)COc1ccccc1 this time t

---

SYSTEM_UNDER_TEST: Metabotropic glutamate receptor 8 (Rattus norvegicus) (UniProt P70579)
EXPERIMENT: mGlu8-mediated intracellular calcium response modulators – cell-based, HEK293 rmGlu8, Gqi9 chimera, Fluo-4 calcium, counter-screen for GIRK activator project, confirmation (AID 623869)
CONDITION_LABEL: HEK293 rmGlu8/Gqi9 calcium flux, Fluo-4 fluorescence; glutamate at EC20 added after compound
About 75 (4%) of roughly 2,100 compounds were called active.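 Rule for the calls: active = calcium fluorescence trace judged by eye to show a response, as agonist, enhancer of the glutamate response, or inhibitor; inactive = trace judged by eye to show no response.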 This excerpt belongs to a sample that is enriched for actives.
Assign a class; possible classes are TRUE for active, FALSE for inactive

Use these answered entries as a reference point.
CCN(CC)C(=O)CSc1nc2ccccc2c(=O)n1-c1ccccc1OC = FALSE
CC(=O)Nc1ccc(SCC(=O)c2cc(C)n(-c3ccccc3F)c2C)cc1 = TRUE
CCc1nc(SCC(=O)N2CC(=O)Nc3ccccc32)c2c(C)c(C)sc2n1 = FALSE

Can you look up the reported call for O=S(=O)(Nc1nc(-c2sccc2Cl)cs1)c1cc(Cl)ccc1Cl for me? TRUE

Next up: CC(=O)Nc1ccc(C(=O)CSc2nc3ccc(C)cc3[nH]2)cc1 FALSE

Now consider Cc1ccccc1-n1c(SCc2ccccn2)nc2n[nH]c(C)c2c1=N and answer again. TRUE

Another compound: Cc1ccc(NC(=S)c2nc3ccccc3[nH]2)cc1 FALSE

---

SYSTEM_UNDER_TEST: Metabotropic glutamate receptor 8 (Rattus norvegicus) (UniProt P70579)
EXPERIMENT: mGlu8-mediated intracellular calcium response modulators – cell-based, HEK293 rmGlu8, Gqi9 chimera, Fluo-4 calcium, counter-screen for GIRK activator project, confirmation (AID 623869)
CONDITION_LABEL: HEK293 rmGlu8/Gqi9 calcium flux, Fluo-4 fluorescence; glutamate at EC20 added after compound
Among all 2,100 compounds or so, about 75 (4%) were called active.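 How the source made its calls: active means calcium fluorescence trace judged by eye to show a response, as agonist, enhancer of the glutamate response, or inhibitor; inactive means trace judged by eye to show no response.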 The entries come from a sample that favours actives as a whole.
Answer with one of the outcomes 1 (active), 0 (inactive)

Cc1ccc2c(c1)NC(=O)CC(c1ccccc1)=N2 = 1
CC(C)C1Cc2c(sc3[nH]c(=S)n(Cc4ccccc4)c(=O)c23)CO1 (configuration not stated) = 0
O=C1CC(C(F)(F)C(F)(F)C(F)(F)F)=Nc2ccccc2N1 = 0
CCOc1ccc(-c2nc(-c3cccnc3)no2)cc1OCC = 1
O=C(NC(=S)Nc1ccccc1)c1cc(-c2ccccc2)nc2ccccc12 = 0

GET /call?item= CCOc1cc(-c2noc(-c3cccnc3)n2)ccc1OC returns the recorded outcome of this test. 0

Next record, please: CCc1ccc2c(c1)c(N=NC1=NC(=O)CS1)c(O)n2C 0

Request: CC12CC3CC(C)(C1)CC(C(=O)NC(=S)N1CCCCC1)(C3)C2 0

Next entry: CCOC(=O)c1ccccc1NC(=O)CSc1nnc(COc2ccccc2C)n1C 0

What about S=c1[nH]nc(-c2cc3c(s2)-c2ccccc2CC3)o1 ? 1

Same for Cc1ccc(C)c(C(=O)c2c(C)nc3sccn23)c1 1

And then Cn1c(=O)c2c(nc3sccn32)n(C)c1=O , what is it? 0

---

SYSTEM_UNDER_TEST: Metabotropic glutamate receptor 8 (Rattus norvegicus) (UniProt P70579)
EXPERIMENT: mGlu8-mediated intracellular calcium response modulators – cell-based, HEK293 rmGlu8, Gqi9 chimera, Fluo-4 calcium, counter-screen for GIRK activator project, confirmation (AID 623869)
CONDITION_LABEL: HEK293 rmGlu8/Gqi9 calcium flux, Fluo-4 fluorescence; glutamate at EC20 added after compound
The whole screen tested about 2,100 compounds, of which about 75 (4%) were called active. This is one part of a sample in which actives are shown more often than they occur.
TEST_READOUT: outcome

Examples with their reported outcome follow.
O=C(COc1ccccc1)NNC(=S)NC(=O)c1ccc(Cl)cc1Cl = active; 1
O=C(CNC(=S)NC(=O)c1cccs1)c1ccccc1 = inactive; 0
CCCCNC(=S)NC(=O)c1ccc(Cl)cc1Cl = inactive; 0
CC(C)CNC(=S)NC(=O)c1ccc(Cl)cc1Cl = inactive; 0
Cc1ccccc1C(=O)NNC(=S)NC(=O)c1ccc(Cl)cc1Cl = active; 1

Reported outcome for Metabotropic glutamate receptor 8 (Rattus norvegicus) (UniProt P70579), given Cc1cccc(C(=O)NC(=S)NNC(=O)c2ccccc2Cl)c1 ? active; 1

Also, Cc1cccc(NC(=O)NC(=S)NC(=O)c2ccccc2)c1 please. inactive; 0

For CC(C)NC(=S)NC(=O)c1ccc(Cl)cc1Cl then? inactive; 0

How about Cc1cccc(C(=O)NC(=S)NNC(=O)c2ccc(Cl)cc2)c1 ? active; 1

Next: O=C(NNC(=O)c1cccs1)Nc1cccc(Cl)c1 inactive; 0
